Method description: IV CLB pharmacology in beagle dogs
Format: in vivo
Details: dog, plasma; IV, this formulation; FIG. 7 beagle 7.5 mg/kg; read-out: Apparent terminal half-life
Assay readout: half-life

Q) half-life lookup needed for `O=C(O)CCCc1ccc(N(CCCl)CCCl)cc1` , thanks.
A) ~1 h

---

Method description: physchem
Assay type: physicochemical
Details: EtOH, organic solvent or mixture, thermodynamic from solid, EtOH, within 1 hour at RT; read-out: CLB solubility (maximum equilibrium concentration) in EtOH
Assay readout: solubility at 1 h

Q) So what's the measured solubility at 1 h for this one? `O=C(O)CCCc1ccc(N(CCCl)CCCl)cc1`
A) > 100 mg/mL

---

Method description: physchem
Assay type: physicochemical
Details: prototype EtOH/lipid solvent vehicle, aqueous with cosolvent or surfactant or cyclodextrin, thermodynamic from solid, EtOH/emulsified soybean oil vehicle; read-out: CLB solubility in prototype EtOH/lipid solvent vehicle
Assay readout: solubility

Q) Return reported solubility; argument: `O=C(O)CCCc1ccc(N(CCCl)CCCl)cc1`
A) ≥ 100 mg/mL
